Just for reference, patent US20200157219A1 is where these values come from.

- System: T1, human PD-1 extracellular domain (human, UniProt Q15116 25-170)
- T1 construct: extracellular domain; Soluble analyte in the bio-layer interferometry assay; also called recombinant human PD-1 extracellular domain protein
- T1 sequence (Q15116 25-170): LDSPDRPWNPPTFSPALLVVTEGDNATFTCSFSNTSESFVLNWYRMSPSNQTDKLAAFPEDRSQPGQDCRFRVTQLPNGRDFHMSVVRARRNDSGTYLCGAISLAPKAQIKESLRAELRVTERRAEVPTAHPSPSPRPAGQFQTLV
- Procedure Text: bio-layer interferometry (Octet Red 96), antibody on anti-human Fc biosensor, PD-1 ECD in solution, 1:1 global fit, 30 C
For each entry below, report its kon value.

// query Tell me the measured kon of AB4 (antibody, human IgG1, kappa, V domains shown, Rabbit variable domains on human IgG1 / human kappa constant domains; also called AB4 chimeric) VH: QSLEESGGRLVTPGTPLTLTCTVSGFSLSSYAMSWVRQAPGKGLEYIGYIGDTTGIAYASWANGRFTISKTSTTVDLKITSPTTGDTATYFCARGWSYLDIWGQGTLVTVSS VL: ALVMTQTPSSVSAAVGGTVTINCQASQNIYSNLAWYQQKPGQPPSLLIYQASTLASGVSSRFSGSGYGTEFTLTISDLECADAATYYCQGGYYSAALNTFGGGTEVVVKR , please.
// result 110000 M⁻¹ s⁻¹

// query Tell me the measured kon of AB5HU (antibody, human IgG1, kappa, V domains shown, Humanized, human gamma-1 / kappa constant domains as in the full-length entries; also called humanized form of antibody AB5; ABSHU [sic]) VH: EVQLLESGGGLVQPGGSLRLSCAASGFTFSSSHWICWVRQAPGKGLEWIACIYTGSIDVFYYASWAKGRFTISRDNSKNTLYLQMNSLRAEDTAVYYCARAANTDTTYFNLWGQGTLVTVSS VL: AYDMTQSPSSLSASVGDRVTINCQASQSINNQLSWYQQKPGKVPKLLIYGASTLASGVPSRFTGSGSGTDFTLTISSLQPEDVATYYCHVHYCSGGSCFWAFGGGTKVEIKR , please.
// result 61000 M⁻¹ s⁻¹
